Hey, just so you know, these numbers are from PubChem BioAssay AID1159580.

Assay: chemical genetic growth profiling, strain panel (AID 1159580);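 further: tested at 20 µM; growth read once vehicle control cultures reached saturation at 30 °C; 1 = growth at the plate median or of vehicle wells; lower values mean less growth of the strain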
Conditions: S. cerevisiae deletion strains, growth OD, locus YOR265W, strain rbl2, hits give low values
The campaign covered roughly 5,500 compounds. About 2,000 (36%) were called active. Not shown: some 18% with an inconclusive outcome. The list shows a part of the results.
The entries below are paired with their reported normalized growth.

Sample C[CH2][Hg][S]c1ccccc1C(=O)O ; normalized growth observed: 0.0558 (active)

###

Experiment: chemical genetic growth profiling, strain panel (AID 1159580)
Conditions: S. cerevisiae deletion strains, growth OD, locus YBR171W, strain sec66
About 2,000 (36%) of roughly 5,500 compounds were called active. Not shown: some 18% with an inconclusive outcome. Rule as the data show it: active = normalized growth mostly below about 0.91 (no sharp cut-off); inconclusive = no clear call, values can overlap the other calls; inactive = mostly above about 0.92. Some of the results follow.
Pick one and only one: yes = active, no = inactive

**Query** Which result was noted for this compound in the test: c1ccc(CC2=NCCN2)cc1
**Result** no

**Query** What is the recorded call for this compound in the test? c1ccc(CN(CC2=NCCN2)c2ccccc2)cc1
**Result** no

**Query** For this compound, state the assay outcome: S=C=NCc1ccccc1
**Result** yes

**Query** Called result for CC(C)N(C(=O)CCl)c1ccccc1
**Result** no

**Query** Dear colleague, could you share the recorded outcome for O=c1ccc2cc(O)c(O)cc2o1 when you have a moment?
**Result** no

**Query** What is the recorded call for this compound in the test? O=C(O)c1ccccc1OP(=O)(O)O
**Result** no

**Query** // param item: CN1CCc2cc3c(cc2C1O)OCO3 (configuration not stated) ; yields the recorded call
**Result** no

**Query** How did this test come out for Cc1cccc(Nc2cc(Cl)nc(SCC(=O)O)n2)c1C ?
**Result** no

**Query** Fill in: this test's call for CCC(C(=O)O)c1ccccc1 (configuration not stated) is ___
**Result** no

**Query** Call for entry O=C(/C=C/c1ccccc1)O[C@H]1C[C@@H](O)[C@]2(O)C=CO[C@@H](O[C@@H]3O[C@H](CO)[C@@H](O)[C@H](O)[C@H]3O)[C@H]12 :
**Result** no

**Query** Record lookup: outcome of this test for OCCN(CCO)c1nc(N2CCCCC2)c2nc(N(CCO)CCO)nc(N3CCCCC3)c2n1 ?
**Result** no

**Query** Assay outcome for CO[C@H]1C[C@H](O[C@H]2[C@H](C)[C@@H](OC3O[C@H](C)C[C@H](N(C)C)[C@H]3O)[C@@H](C)C[C@]3(CO3)C(=O)[C@H](C)[C@@H](O)[C@@H](C)[C@@H](C)OC(=O)[C@@H]2C)O[C@@H](C)[C@@H]1O (some centres not stated) : what was it?
**Result** no

**Query** Tell me the recorded outcome of this test for NC/C=C/C(=O)O .
**Result** no

**Query** Assay result, entry N=c1nc(N2CCCCC2)cc(N)n1O — outcome?
**Result** no

**Query** What outcome does the record of this test show for COc1ccc2c(c1)[C@@]1(C)CCC(=O)C[C@H]1CC2 ?
**Result** no

###

Experiment: chemical genetic growth profiling, strain panel (AID 1159580)
Details: S. cerevisiae deletion strains, growth OD, locus YLR258W, strain gsy2
About 2,000 (36%) of roughly 5,500 compounds were called active. Not shown: some 18% with an inconclusive outcome. Rule as the data show it: active = normalized growth mostly below about 0.91 (no sharp cut-off); inconclusive = no clear call, values can overlap the other calls; inactive = mostly above about 0.92. This is one part of the list.
Outcome field: choose from label 1 for active, label 0 for inactive

# count of solved cases: 3
| MOLECULE | CLASS_LABEL |
| --- | --- |
| COc1ccc(C(=O)c2ccccc2O)c(O)c1 | label 1 |
| COc1ccc(C(=O)c2ccccc2)c(O)c1 | label 1 |
| COc1ccc2c(c1)OC[C@@H](Cc1ccc(OC)c(OC)c1)[C@H]2O | label 0 |

**Query** # fetch the recorded call for CC1(C)C2CC[C@]3(C)C(C(=O)C=C4[C@H]5C[C@@](C)(C(=O)O)CC[C@]5(C)CC[C@]43C)[C@@]2(C)CC[C@@H]1O (stereo not given in full) here
**Result** label 0

**Query** Hi, sorry to bother you, what did the test record for COc1cc(O)c(C(=O)c2ccccc2)cc1O ?
**Result** label 0

**Query** Hi, do you know how O=C1CC(c2ccc(O)c(O)c2)Oc2cc(O)cc(O)c21 (stereo not given) came out in this test?
**Result** label 0

**Query** Hey, what did the test say about C[C@@H]1O[C@@H](O[C@H]2[C@@H](Oc3cc(O)c4c(c3)O[C@H](c3ccc(O)cc3)CC4=O)O[C@H](CO)[C@@H](O)[C@@H]2O)[C@H](O)[C@H](O)[C@H]1O ?
**Result** label 0

**Query** In this assay, the call recorded for O=C(/C=C/C=C/c1ccc2c(c1)OCO2)N1CCCCC1 was what?
**Result** label 0

###

Assay: chemical genetic growth profiling, strain panel (AID 1159580);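 further: tested at 20 µM; growth read once vehicle control cultures reached saturation at 30 °C; 1 = growth at the plate median or of vehicle wells; lower values mean less growth of the strain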
Details: S. cerevisiae deletion strains, growth OD, locus YLL001W, strain dnm1, hits give low values
About 2,000 (36%) of roughly 5,500 compounds were called active. Inconclusive results (about 18%) are left out. The list shows a part of the results.
Each entry below lists one item and its recorded normalized growth value.
The answer should be written as a number, with no unit following it.

Please review the entries below; each comes with its answer.
| COMPOUND | READOUT_TYPE | MEASUREMENT |
| --- | --- | --- |
| O=c1ccc2ccccc2o1 | normalized growth | 0.981 |
| Cc1cc(=O)c2c(O)cc(O)c(C)c2o1 | normalized growth | 0.944 |
| COc1cccc([C@]2(O)CCCC[C@H]2CN(C)C)c1 | normalized growth | 0.981 |

Noted for COc1cc(O)c2c(=O)cc(C)oc2c1CC=C(C)C : its normalized growth reads 0.982

Looking up CC(=O)CC(=O)CCC(=O)O , I found its normalized growth recorded as 1.01

normalized growth reported for this compound c1ccc(CC2=NCCN2)cc1 : 1.01

###

Experiment: chemical genetic growth profiling, strain panel (AID 1159580);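 further: tested at 20 µM; growth read once vehicle control cultures reached saturation at 30 °C; 1 = growth at the plate median or of vehicle wells; lower values mean less growth of the strain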
Conditions: S. cerevisiae deletion strains, growth OD, locus YJL134W, strain LCB3
Out of some 5,500 compounds screened, about 2,000 (36%) were called active. About 18% were inconclusive and are not listed. No stated cut-off is given here; in the data, active means normalized growth mostly below about 0.91 (no sharp cut-off); inconclusive means no clear call, values can overlap the other calls; inactive means mostly above about 0.92. The list shows a part of the results.
Return exactly one item of active, inactive

**Query** # fetch the recorded call for COC(=O)COc1ccc(Cl)cc1Cl here
**Result** inactive

**Query** # fetch the recorded call for C1CCc2nnnn2CC1 here
**Result** inactive

**Query** Assay outcome for COc1ccc(C[C@H]2NC[C@H](O)[C@H]2OC(C)=O)cc1 : what was it?
**Result** inactive

**Query** What was the test verdict on CCCCOc1ccc(C(=O)CCN2CCCCC2)cc1 ?
**Result** active

**Query** What did this assay record as the result for OC(CCN1CCCCC1)(c1ccccc1)c1ccccc1 ?
**Result** inactive

**Query** In this assay, the call recorded for Cc1ccc(C(=O)C(C)CN2CCCCC2)cc1 (configuration not stated) was what?
**Result** inactive

**Query** Dear colleague, could you share the recorded outcome for Cc1cc(=O)c2c(O)c(C)c(O)cc2o1 when you have a moment?
**Result** inactive

**Query** Identify the outcome logged in this assay for the molecule shown: O=C(O)C1CC([C@@H]2CCCCN2)CN2CCCCC12 (some centres not stated)
**Result** inactive

**Query** Please state the recorded outcome for this molecule: CCCCOc1ccc(OCCCN2CCOCC2)cc1
**Result** inactive

**Query** // outcome(item) with item = CCN(CC)C(=S)SSC(=S)N(CC)CC
**Result** active

**Query** For C[N+](C)(C)CCOP(=O)([O-])OP(=O)(O)OC[C@H]1OC(n2ccc(N)nc2=O)[C@H](O)[C@@H]1O (some centres not stated) , which call appears in the assay record?
**Result** inactive

**Query** Please indicate how the test categorized CC(=C(CCOP(=O)(O)O)SC(=O)c1ccccc1)N(C=O)Cc1cnc(C)nc1N .
**Result** inactive

###

Test: chemical genetic growth profiling, strain panel (AID 1159580);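 further: tested at 20 µM; growth read once vehicle control cultures reached saturation at 30 °C; 1 = growth at the plate median or of vehicle wells; lower values mean less growth of the strain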
Conditions: S. cerevisiae deletion strains, growth OD, locus YLR342W, strain FKS1
In all, about 5,500 compounds went through this assay and about 2,000 (36%) were called active. Inconclusive results (about 18%) are left out. No stated cut-off is given here; in the data, active means normalized growth mostly below about 0.91 (no sharp cut-off); inconclusive means no clear call, values can overlap the other calls; inactive means mostly above about 0.92. This is one part of the list.
Outcome (select one): Yes = active, No = inactive

Some solved cases for reference:
| STRUCTURE_AS_SMILES | CLASS_LABEL |
| --- | --- |
| Cc1cc(=O)c2c(O)cc(O)c(C)c2o1 | No |
| C=CC1=C(C(=O)O)N2C(=O)[C@@H](NC(=O)/C(=N/O)c3csc(N)n3)[C@H]2SC1 | No |
| OC(CCN1CCCCC1)(c1ccccc1)c1ccccc1 | No |
| COc1c2c(c(CC=C(C)C)c3oc(=O)c(-c4ccc(O)cc4)c(O)c13)OC(C)(C)C=C2 | Yes |
| Cc1cc(=O)c2c(O)c(C)c(O)cc2o1 | No |

Lab note: next compound to report on.
**Query** How was CCCCOc1ccc(C(=O)CCN2CCCCC2)cc1 classified in this test?
**Result** No
